Provenance of the data: ChEMBL document CHEMBL3039007

This listing pairs compounds with measured residual activity.
Biological target: Solute carrier organic anion transporter family member 1B1 (Homo sapiens, UniProt Q9Y6L6)
Sequence (Q9Y6L6 whole entry): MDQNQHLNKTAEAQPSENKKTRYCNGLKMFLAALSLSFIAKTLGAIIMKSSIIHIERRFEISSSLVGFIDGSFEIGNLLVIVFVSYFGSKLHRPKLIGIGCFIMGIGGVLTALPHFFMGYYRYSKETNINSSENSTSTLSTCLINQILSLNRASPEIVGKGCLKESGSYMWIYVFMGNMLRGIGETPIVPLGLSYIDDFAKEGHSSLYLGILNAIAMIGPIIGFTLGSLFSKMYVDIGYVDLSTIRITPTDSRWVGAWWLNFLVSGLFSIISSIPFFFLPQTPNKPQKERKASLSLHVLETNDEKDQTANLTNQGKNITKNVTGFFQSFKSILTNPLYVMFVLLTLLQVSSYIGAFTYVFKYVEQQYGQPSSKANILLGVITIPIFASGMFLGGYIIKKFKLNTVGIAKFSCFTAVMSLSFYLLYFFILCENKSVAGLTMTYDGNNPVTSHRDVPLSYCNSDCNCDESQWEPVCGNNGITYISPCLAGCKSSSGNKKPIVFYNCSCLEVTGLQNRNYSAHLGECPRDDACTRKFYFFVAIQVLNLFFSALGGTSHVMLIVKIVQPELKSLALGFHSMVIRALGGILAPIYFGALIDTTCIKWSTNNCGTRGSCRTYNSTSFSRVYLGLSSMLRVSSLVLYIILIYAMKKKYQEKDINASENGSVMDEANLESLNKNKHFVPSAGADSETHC
Conditions: chinese hamster, cho, 10 µM
Response body: numeric value in %, unit text excluded.

Known residual activity results, listed for orientation:
| COMPOUND | MEASURED QUANTITY | OBSERVED VALUE |
| --- | --- | --- |
| CC(C)=CCc1c(O)cc2oc(C)cc(=O)c2c1O | residual activity | 137.1 |
| Cc1ccc(-c2cc(C(F)(F)F)nn2-c2ccc(S(N)(=O)=O)cc2)cc1 | residual activity | 108.3 |
| Cc1ccc(Cl)c(Nc2ccccc2C(=O)[O-])c1Cl.O.[Na+] [MECLOFENAMATE SODIUM] | residual activity | 77.28 |

Ask: I would be grateful if you could share the reported residual activity for NC(=O)NCCC[C@H](N)C(=O)O .
Reply: 135.1

Ask: I would be grateful if you could share the reported residual activity for CCCCNc1ccc(C(=O)OCCN(C)C)cc1.Cl [TETRACAINE HYDROCHLORIDE] .
Reply: 61.91

Ask: I would be grateful if you could share the reported residual activity for Cn1c(=O)c2c(ncn2CC(O)CO)n(C)c1=O (configuration not stated) .
Reply: 92.75

Ask: I would be grateful if you could share the reported residual activity for COc1ccc2c(=O)ccoc2c1 .
Reply: 91.79

Ask: I would be grateful if you could share the reported residual activity for CCCN(CCC)S(=O)(=O)c1ccc(C(=O)O)cc1 .
Reply: 81.99
